# maps each entry to its IC50
# experimentalSystem: human cannabinoid CB1 receptor (Homo sapiens)
# Construct: purchased Perkin Elmer Inc., Singapore Pte; Ltd. RBHCB1M400UA; host or cells: HEK293-EBNA cell membranes (overexpressing)
# assay: biochemical
# Type: binding
# conditionDescription: [3H]CP-55940 0.5 nM, hCB1 HEK293-EBNA membranes, mean ± SEM n = 3; read-out: CB1 IC50

Example results:
- compound: "O=C(c1cccc2ccccc12)n1c(-c2ccco2)nc2ccc(F)cc21 [Compound 5f′]"
  IC50: "8.65 µM"
- compound: "Cc1ccc(-c2nc3ccc(Cl)cc3n2C(=O)c2cccc3ccccc23)o1 [4e′]"
  IC50: "> 10 µM"

Query :: Dear colleague, I am looking for the recorded IC50 of the following compound: Cc1ccc(-c2nc3ccc(F)cc3n2C(=O)c2cccc3ccccc23)o1 [5e′]
Result :: > 10 µM

Query :: Try O=C(c1cccc2ccccc12)n1c(-c2ccco2)nc2ccc(Cl)cc21 [Compound 4f′] next.
Result :: > 10 µM

Query :: Then what about the compound O=C(c1cccc2ccccc12)n1c(-c2cccnc2)nc2cc(F)ccc21 [Compound 5a] ?
Result :: > 10 µM

---

Parameter: inhibition at 10 µM. Scope: all listed entries.
# experimentalSystem: human recombinant cannabinoid CB2 receptor (Homo sapiens)
# Construct: purchased Perkin Elmer Inc., Singapore Pte; Ltd. RBXCB2M400UA; host or cells: HEK293-EBNA cell membranes (overexpressing)
# Sequence (P34972 whole entry): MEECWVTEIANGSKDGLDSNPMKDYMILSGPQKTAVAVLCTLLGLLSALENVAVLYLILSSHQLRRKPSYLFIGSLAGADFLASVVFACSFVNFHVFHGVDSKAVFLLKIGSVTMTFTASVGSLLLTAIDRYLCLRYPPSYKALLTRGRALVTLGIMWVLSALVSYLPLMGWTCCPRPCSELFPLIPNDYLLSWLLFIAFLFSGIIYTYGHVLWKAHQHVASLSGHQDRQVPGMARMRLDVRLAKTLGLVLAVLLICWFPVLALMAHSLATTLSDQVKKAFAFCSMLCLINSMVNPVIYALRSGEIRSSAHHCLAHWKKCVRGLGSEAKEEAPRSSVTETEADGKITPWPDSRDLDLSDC
# assay: CB2 radioligand displacement binding assay ([3H]CP-55940)
# conditionDescription: displacement of [3H]CP-55940 at 10 μM compound; read-out: CB2 Max Tested µM (% Displacement)
The answer is to be given in %; state only the numeric part.

Below are worked cases with known answers.
- compound: "Cc1cc(-c2nc3cc(F)ccc3n2C(=O)c2cccc3ccccc23)no1 [Compound 5c]"
  experimentalReadout: "inhibition at 10 µM"
  measurement: 24
- compound: "COc1cccc(-c2nc3cc(F)ccc3n2C(=O)c2cccc3ccccc23)c1 [Compound 5b]"
  experimentalReadout: "inhibition at 10 µM"
  measurement: 45
- compound: "O=C(c1cccc2ccccc12)n1c(-c2ccon2)nc2ccc(Cl)cc21 [4d′]"
  experimentalReadout: "inhibition at 10 µM"
  measurement: 42

Query :: # input compound: COc1cccc(-c2nc3ccc(F)cc3n2C(=O)c2cccc3ccccc23)c1 [5b′] ; wanted: its inhibition at 10 µM
Result :: 53.5

Query :: Do the same for Cc1ccc(-c2nc3cc(F)ccc3n2C(=O)c2cccc3ccccc23)o1 [Compound 5e] please
Result :: 38.5

---

# experimentalSystem: human cannabinoid CB1 receptor (Homo sapiens, UniProt P21554)
# Construct: purchased Perkin Elmer Inc., Singapore Pte; Ltd. RBHCB1M400UA; host or cells: HEK293-EBNA cell membranes (overexpressing)
# Sequence (P21554 whole entry): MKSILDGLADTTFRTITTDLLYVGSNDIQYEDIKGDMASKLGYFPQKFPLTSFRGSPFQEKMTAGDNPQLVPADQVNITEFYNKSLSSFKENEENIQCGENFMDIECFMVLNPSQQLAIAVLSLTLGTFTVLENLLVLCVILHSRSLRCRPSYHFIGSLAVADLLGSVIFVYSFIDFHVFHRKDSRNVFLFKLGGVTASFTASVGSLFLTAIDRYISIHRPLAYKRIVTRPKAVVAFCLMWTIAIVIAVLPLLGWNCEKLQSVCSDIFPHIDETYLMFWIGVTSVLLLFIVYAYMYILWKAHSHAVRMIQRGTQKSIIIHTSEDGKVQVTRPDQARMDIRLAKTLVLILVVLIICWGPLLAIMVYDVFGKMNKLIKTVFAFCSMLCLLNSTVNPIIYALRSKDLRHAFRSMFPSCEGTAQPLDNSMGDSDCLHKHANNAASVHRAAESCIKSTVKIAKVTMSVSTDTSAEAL
# assay: biochemical
# Format: binding
# conditionDescription: displacement of [3H]CP-55940 at 10 μM compound; read-out: CB1 Max Tested µM (% Displacement)
experimentalReadout: inhibition at 10 µM (%)
Unit % implied. Number only.

Some entries whose results are on file:
- smilesStructure: "O=C(c1cccc2ccccc12)n1c(-c2cccnc2)nc2cc(F)ccc21"
  unitLabel: "%"
  inhibition at 10 µM: 41
- smilesStructure: "O=C(c1cccc2ccccc12)n1c(-c2cccnc2)nc2ccc(Cl)cc21"
  unitLabel: "%"
  inhibition at 10 µM: 20
- smilesStructure: "COc1cccc(-c2nc3ccc(F)cc3n2C(=O)c2cccc3ccccc23)c1"
  unitLabel: "%"
  inhibition at 10 µM: 47

Query :: For the compound shown here, COc1cccc(-c2nc3ccc(Cl)cc3n2C(=O)c2cccc3ccccc23)c1 , give the reported inhibition at 10 µM.
Result :: 43

Query :: # repeat for O=C(c1cccc2ccccc12)n1c(-c2ccon2)nc2ccc(Cl)cc21
Result :: 47

Query :: Next: O=C(c1cccc2ccccc12)n1c(-c2cccnc2)nc2cc(Cl)ccc21
Result :: 36

Query :: One more compound: O=C(c1cccc2ccccc12)n1c(-c2cccnc2)nc2ccc(F)cc21
Result :: 9.5

Query :: Try Cc1cc(-c2nc3ccc(Cl)cc3n2C(=O)c2cccc3ccccc23)no1 next.
Result :: 44

Query :: Also, Cc1ccc(-c2nc3ccc(F)cc3n2C(=O)c2cccc3ccccc23)o1 please.
Result :: 43

Query :: Moving on to the next compound: Cc1cc(-c2nc3ccc(F)cc3n2C(=O)c2cccc3ccccc23)no1
Result :: 37

Query :: Another compound to look at: Cc1ccc(-c2nc3cc(Cl)ccc3n2C(=O)c2cccc3ccccc23)o1
Result :: 30

Query :: And then O=C(c1cccc2ccccc12)n1c(-c2ccon2)nc2cc(F)ccc21 , what is it?
Result :: 54

Query :: Input Cc1cc(-c2nc3cc(Cl)ccc3n2C(=O)c2cccc3ccccc23)no1
Result :: 38

Query :: Now give it for O=C(c1cccc2ccccc12)n1c(-c2ccco2)nc2ccc(Cl)cc21 too.
Result :: 47.5
